Entries and their IC90 of chemotaxis inhibition values follow.
assayed_system: recombinant human CCL20 (R&D Systems, #360-MP-025/CF) (human, UniProt P78556 27-96)
Sequence (P78556 other isoform, or with tags, fused parts or gaps limits assumed): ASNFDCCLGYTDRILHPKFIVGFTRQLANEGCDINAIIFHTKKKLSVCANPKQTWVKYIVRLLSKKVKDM
experiment_notes: cell-based or functional assay
measurement_label: IC90 of chemotaxis inhibition (nM)

binder	result_unit	number
humanized anti-human CCL20 antibody 36LC3/36HKK3 (antibody, human IgG1, kappa, V domains shown) VH: QVQLVQSGAEVKKPGASVKVSCKASGYTFTNYWMHWVRQAPGQGLEWMGVIDPSDSYTTYNQKFKGKATLTVDTSTSTAYMELSSLRSEDTAVYYCTRGNYGVDYAMDYWGQGTLVTVSS VL: DIQMTQSPSSLSASVGDRVTITCRASENIYGALNWYQQKPGKAPKLLIYGATNLADGVPSRFSGSGSGRQYSLTISSLQPEDFATYYCQNVLITPYTFGGGTKLEIKR	nM	4.33
humanized anti-human CCL20 antibody 36LK3/36HC3 (antibody, human IgG1, kappa, V domains shown) VH: QVQLVQSGAEVKKPGASVKVSCKASGYTFTNYWMHWVKQAPGQGLEWIGVIDPSDSYTTYNQKFKGKATMTRDTSTSTVYMELSSLRSEDTAVYYCTRGNYGVDYAMDYWGQGTSVTVSS VL: DIQMTQSPSSLSASVGDRVTITCGASENIYGALNWYQRKPGKAPKLLIYGATNLADGVPSRFSGSGSGRDYTLTISSLQPEDFATYYCQNVLITPYTFGQGTKLEIKR	nM	4.6
humanized anti-human CCL20 antibody 36LK3/42HKK2 (antibody, human IgG1, kappa, V domains shown) VH: QVQLVQSGAEVKKPGASVKVSCKASGYTFTSYWMHWVRQAPGQGLEWMGLIDPSDKYTNYNQKFKGRVTLTVDTSTSTVYMELSSLRSEDTAVYYCTRGNYGVDYGMDYWGQGTLVTVSS VL: DIQMTQSPSSLSASVGDRVTITCGASENIYGALNWYQRKPGKAPKLLIYGATNLADGVPSRFSGSGSGRDYTLTISSLQPEDFATYYCQNVLITPYTFGQGTKLEIKR	nM	6.54
